Each recorded value in this set is attributed to patent US7196110B2.

Target: PDGF-receptor beta enzyme comprising the tyrosine kinase domain (Homo sapiens)
Construct: from amino acid 545 to 1106 of GenBank Access NO: AAA36427
Assay: Inhibition of PDGF-receptor kinase activity (cell-free, PLC1 peptide, 33P Flashplate)
Assay type: biochemical
Conditions: PDGF-R kinase activity; compound at 10 uM; read-out: Percent Inhibition @ 10 uM
Protocol: PDGF-R kinase activity was assayed by its ability to phosphorylate one of its target proteins, PLCγ, in a cell-free system, in particular, a PLC1 peptide comprising the tyrosine residue where the phosphorylation occurs was used for the assay. […] In order to test the potency of inhibition of present compounds, an IC50 for an individual compound was measured using the above procedure. […]
measuredParameter: inhibition at 10 µM (%)

(a) COc1cc2c(cc1OC)-c1nn(CCO)c(Nc3cccc(F)c3)c1C2 [Compound 573]
(b) COc1cccc(Nc2[nH]nc3c2Cc2cc(OC(C)C)c(OC(C)C)cc2-3)c1 [Compound 168]
## Input Just tell me: smaller inhibition at 10 µM value, a or b ? Your choice should be expressed through its label.
## Output a
(a: 52%, b: 91%)

###

target: PDGF-receptor beta enzyme comprising the tyrosine kinase domain (Homo sapiens, UniProt P09619); construct: from amino acid 545 to 1106 of GenBank Access NO: AAA36427; assay: Inhibition of PDGF-receptor kinase activity (cell-free, PLC1 peptide, 33P Flashplate); assay type: biochemical; settings: PDGF-R kinase activity; read-out: IC50
Sequence (P09619 545-1106): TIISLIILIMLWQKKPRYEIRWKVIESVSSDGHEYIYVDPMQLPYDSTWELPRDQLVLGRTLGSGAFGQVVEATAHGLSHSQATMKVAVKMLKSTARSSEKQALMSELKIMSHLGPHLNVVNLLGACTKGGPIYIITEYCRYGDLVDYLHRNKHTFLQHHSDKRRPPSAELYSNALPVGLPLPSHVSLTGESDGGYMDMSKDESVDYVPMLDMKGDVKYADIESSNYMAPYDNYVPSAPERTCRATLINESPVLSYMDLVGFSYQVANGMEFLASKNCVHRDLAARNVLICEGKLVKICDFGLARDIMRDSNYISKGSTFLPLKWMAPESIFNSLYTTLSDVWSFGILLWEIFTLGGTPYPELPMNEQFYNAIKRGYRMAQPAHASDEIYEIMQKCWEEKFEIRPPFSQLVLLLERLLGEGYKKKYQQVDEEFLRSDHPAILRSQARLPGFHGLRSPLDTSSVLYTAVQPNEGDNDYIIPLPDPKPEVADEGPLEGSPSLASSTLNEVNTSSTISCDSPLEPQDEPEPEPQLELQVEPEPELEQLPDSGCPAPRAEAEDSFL
measuredParameter: IC50 (µM)

A selection of reference data follows.
>  <compoundStructureString>
COc1cc2c(cc1OC)-c1n[nH]c(Nc3cccc(CO)c3)c1C2

>  <unitSymbol>
µM

>  <numericValue>
0.033

$$$$
>  <compoundStructureString>
COc1cc2c(cc1OC)-c1n[nH]c(Nc3cc(C(F)(F)F)cc(C(F)(F)F)c3)c1C2

>  <unitSymbol>
µM

>  <numericValue>
16.8

$$$$
>  <compoundStructureString>
COc1cccc2c1Cc1c-2n[nH]c1Nc1cccc(S(N)(=O)=O)c1

>  <unitSymbol>
µM

>  <numericValue>
0.892

$$$$

(A) Clc1ccc(Nc2[nH]nc3c2Cc2ccccc2-3)cc1
(B) Cc1ccc2c(c1)-c1n[nH]c(Nc3cc(C(C)(C)C)cc(C(C)(C)C)c3)c1C2
## Input Field: entry with larger IC50 (options A / B ). Your choice should be expressed through its label.
## Output B

###

target: PDGF-receptor beta enzyme comprising the tyrosine kinase domain (Homo sapiens); construct: from amino acid 545 to 1106 of GenBank Access NO: AAA36427; assay: Inhibition of PDGF-receptor kinase activity (cell-free, PLC1 peptide, 33P Flashplate); format: biochemical; conditions: PDGF-R kinase activity; compound at 10 uM; read-out: Percent Inhibition @ 10 uM
measuredParameter: inhibition at 10 µM (%)

>  <compound>
CC1c2ccccc2-c2n[nH]c(Nc3cccc(F)c3)c21 (stereo not drawn)

>  <measuredParameter>
inhibition at 10 µM

>  <numericValue>
82

$$$$
>  <compound>
COc1ccc2c(c1)-c1n[nH]c(Nc3cccnc3)c1C2

>  <measuredParameter>
inhibition at 10 µM

>  <numericValue>
87

$$$$
>  <compound>
CCOC(=O)CNC(=O)n1nc2c(c1Nc1cccc(F)c1)Cc1cc(OC)c(OC)cc1-2

>  <measuredParameter>
inhibition at 10 µM

>  <numericValue>
39

$$$$
>  <compound>
COc1cc2c(cc1OC)-c1nn(C(=O)CC(=O)N3CCCC3)c(Nc3cccc(F)c3)c1C2

>  <measuredParameter>
inhibition at 10 µM

>  <numericValue>
105

$$$$
>  <compound>
COc1cc2c(cc1OC)-c1c(c(Nc3cccc(F)c3)nn1CCO)C2

>  <measuredParameter>
inhibition at 10 µM

>  <numericValue>
67

$$$$

(1) CCOC(=O)n1nc2c(c1Nc1cccc(F)c1)Cc1cc(OC)c(OC)cc1-2
(2) COc1cccc(Nc2[nH]nc3c2C(C)(C)c2cc(OC)c(OC)cc2-3)c1
## Input Field: entry with larger inhibition at 10 µM (options 1 / 2 ). Your choice should be expressed through its label.
## Output 1

(I) CCOc1cc2c(cc1OCCCO)-c1n[nH]c(Nc3cccc(Cl)c3)c1C2
(II) CC(C)Oc1cc2c(cc1OC(C)C)C(C)c1c-2n[nH]c1Nc1ccc(F)c(Cl)c1 (stereo not drawn)
## Input Field: entry with larger inhibition at 10 µM (options I / II ). Your choice should be expressed through its label.
## Output I
(I: 97%, II: 62%)

(I) CCOc1cc2c(cc1OCC)-c1n[nH]c(Nc3cccc(OC)c3)c1C2
(II) Fc1ccc2c(c1)Cc1c-2n[nH]c1NCc1ccc(F)c(F)c1
(III) CC(C)(C)c1cc(Nc2[nH]nc3c2Cc2cc(F)ccc2-3)cc(C(C)(C)C)c1
## Input Please rank these compounds by inhibition at 10 µM in descending order. Form entry: labels listed in requested order.
## Output I, III, II
